Values were extracted from patent US20240132578A1.

biological target: HIV-1 Env of isolate APV 6 (subtype B) (HIV-1); experiment: cell-based or functional assay
Attribute Measured: IC50 (µg/mL), pseudovirus neutralization

{"Binder": "PGT-130 (antibody, V domains shown) VH: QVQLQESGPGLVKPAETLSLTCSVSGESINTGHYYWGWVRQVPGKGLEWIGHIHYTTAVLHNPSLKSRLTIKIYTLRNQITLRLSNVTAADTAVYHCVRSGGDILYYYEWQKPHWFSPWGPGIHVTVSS VL: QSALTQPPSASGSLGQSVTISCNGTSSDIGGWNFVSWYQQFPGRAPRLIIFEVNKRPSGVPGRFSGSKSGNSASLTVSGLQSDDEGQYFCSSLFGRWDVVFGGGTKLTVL", "Attribute Measured": "IC50 (µg/mL), pseudovirus neutralization", "Endpoint Value": "> 50 µg/mL"}
{"Binder": "PGT-128 (antibody, V domains shown) VH: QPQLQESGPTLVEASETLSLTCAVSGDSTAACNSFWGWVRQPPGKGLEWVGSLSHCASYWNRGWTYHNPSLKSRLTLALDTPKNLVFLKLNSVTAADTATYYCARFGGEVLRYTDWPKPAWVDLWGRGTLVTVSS VL: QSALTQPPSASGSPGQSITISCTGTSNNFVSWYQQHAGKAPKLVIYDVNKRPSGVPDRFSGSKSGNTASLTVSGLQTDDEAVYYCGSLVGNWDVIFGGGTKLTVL", "Attribute Measured": "IC50 (µg/mL), pseudovirus neutralization", "Endpoint Value": "0.007 µg/mL"}
{"Binder": "PGT-136 (antibody, V domains shown) VH: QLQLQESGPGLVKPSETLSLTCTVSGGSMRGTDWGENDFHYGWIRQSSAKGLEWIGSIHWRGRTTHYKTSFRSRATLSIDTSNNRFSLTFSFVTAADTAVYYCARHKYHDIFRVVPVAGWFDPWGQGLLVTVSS VL: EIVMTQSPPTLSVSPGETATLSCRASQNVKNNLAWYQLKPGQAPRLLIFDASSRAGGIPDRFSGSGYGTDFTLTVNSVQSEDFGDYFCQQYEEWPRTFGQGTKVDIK", "Attribute Measured": "IC50 (µg/mL), pseudovirus neutralization", "Endpoint Value": "> 50 µg/mL"}
{"Binder": "PGT-135 (antibody, V domains shown) VH: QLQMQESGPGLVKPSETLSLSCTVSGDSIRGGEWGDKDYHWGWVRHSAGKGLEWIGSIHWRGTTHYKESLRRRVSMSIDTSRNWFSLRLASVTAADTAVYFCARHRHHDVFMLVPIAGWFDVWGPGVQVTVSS VL: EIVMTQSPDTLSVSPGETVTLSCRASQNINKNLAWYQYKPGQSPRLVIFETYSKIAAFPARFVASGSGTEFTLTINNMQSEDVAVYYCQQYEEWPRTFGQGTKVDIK", "Attribute Measured": "IC50 (µg/mL), pseudovirus neutralization", "Endpoint Value": "> 50 µg/mL"}
{"Binder": "PGT-137 (antibody, V domains shown) VH: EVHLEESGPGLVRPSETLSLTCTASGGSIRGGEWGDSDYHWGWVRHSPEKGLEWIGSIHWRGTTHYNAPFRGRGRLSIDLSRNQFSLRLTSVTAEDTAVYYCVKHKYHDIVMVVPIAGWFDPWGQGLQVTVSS VL: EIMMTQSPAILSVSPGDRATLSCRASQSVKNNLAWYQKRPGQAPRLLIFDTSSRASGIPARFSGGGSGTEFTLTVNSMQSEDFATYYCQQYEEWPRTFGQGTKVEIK", "Attribute Measured": "IC50 (µg/mL), pseudovirus neutralization", "Endpoint Value": "> 50 µg/mL"}
{"Binder": "PGT-131 (antibody, V domains shown) VH: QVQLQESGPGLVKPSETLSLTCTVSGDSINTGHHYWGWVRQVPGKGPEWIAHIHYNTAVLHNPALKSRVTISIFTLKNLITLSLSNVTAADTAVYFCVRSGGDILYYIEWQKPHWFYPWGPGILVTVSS VL: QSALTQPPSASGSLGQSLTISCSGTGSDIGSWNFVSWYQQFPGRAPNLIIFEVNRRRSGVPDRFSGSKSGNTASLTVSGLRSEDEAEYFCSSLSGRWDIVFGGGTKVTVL", "Attribute Measured": "IC50 (µg/mL), pseudovirus neutralization", "Endpoint Value": "> 50 µg/mL"}
